The measurements presented in this section are drawn from the supplement of paper PMC9170038.

Listed below: apparent KD of K4 kissing-loop reporter values for each entry.
- Tested on: K4 kissing-loop RNA reporter;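 note: bound reporter read as fluorescence of individual clusters on recovered sequencing chips by microscopy, with normalized cluster intensities fitted with a binding model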
- test_description: apparent KD of K4 kissing-loop reporter; higher = weaker reporter binding
- experimental_conditions: Eterna round: R107; input ligand: FMN 200 uM

| sequence_string | endpoint_result |
| --- | --- |
| UGUCAUGGAAACAUGACCGUUAAAAUAAAUCGAGGACCGGUACGGCCGCCACUCGUAUAGCGGUCAGUGAUGUUGACUGUAGUAC [KL-SSTryp-A form2 sub12 #dotplot2>1] | 419 nM |

Entry AUUAAUAUCACGGCCGCCACUGAAUAUUGUUUUUAUAUUUAGAAAUCUUGCCAGUGAUGUUGGAUCAGGACCGGGUGAGUUUAUA [JR_SSTryptoB_Sub006] has what apparent KD of K4 kissing-loop reporter?
613 nM

// apparent KD of K4 kissing-loop reporter lookup, key: AACCUUGUAGUGAUGUUGCAAGGCGCUGAUACCAGUCACAGCCACGACCCUUGGCAGCAGUGGCGUUCAUGAUAAAAUAGAUUAA [theeternabot_sameState_KL_Theo_A_49]
42 nM

For the sequence AAAGUGUCAGCACGAGUGAUGUUCGUGGAUACCAGCCUCGAUAAAGGCCCUUGGCAGCCGAAAAGUCAAGGGCUGGCACAUAAAA [KL-XTheo-A11] , what apparent KD of K4 kissing-loop reporter is on record?
216 nM

May I ask what apparent KD of K4 kissing-loop reporter has been recorded for CCAAGCGUCAGCGAUACCAGAAUUCUAGUGAUGUUAGGUUCUGUCAUUGUACUAGCAGUGUUCCCUUGGCAGCGCGUGAUAGGCA [theeternabot_exclusion_KL_Theo_B_16] ?
170 nM

----------
- Test system: MS2 coat protein
- test_description: apparent KD of MS2 coat protein; designed switch direction (-1 OFF switch, 1 ON switch): -1; higher = weaker reporter binding
- experimental_conditions: Eterna round: R95; input ligand: FMN 200 uM
recorded_metric: apparent KD of MS2 coat protein
Please append the unit to your numeric answer.

Solved cases (3 shown):
| sequence_string | tgt | recorded_metric | endpoint_result |
| --- | --- | --- | --- |
| CAUGAUCUUCGGAUCAUGUACAUGAGGAUCACCCAUGUGACGAGUUGAUCCUCAUACAAGCUUUUUGCUCGUCUUAU [Sensor v3 - Turn-off variant 1 - 15] (puzzle: Sensor v3, turn-off variant 1) | MS2 coat protein | apparent KD of MS2 coat protein | 26.8 nM |
| AGAUGUAGAUACCGAUCCUACAUGAGGAUCACCCAUGUAGCUAGACGUGCACGCGUAGCUCGUCAGACUACCAGAAG [salish99_TOv1_r3_085] (puzzle: Sensor v3, turn-off variant 1) | MS2 coat protein | apparent KD of MS2 coat protein | 292 nM |
| AGUACUAACACGUGAGUGUUAGUACAAUAAGCUUGUGAAACAUGAGGAUCACCCAUGUCCUCAUAAGCUCGUCUUAU [salish99_TOv2_r3_061] (puzzle: Sensor v3, turn-off variant 2) | MS2 coat protein | apparent KD of MS2 coat protein | 17.4 nM |

Quick check: apparent KD of MS2 coat protein of GAUGUGGGUUUUCAGAGUAACAUGAGGAUCACCCAUGUAGAAGUUGGAGGGAUCAAGCUUUUUGGUCGUCAUAUGUG [JR_SV3TOV1_Sub051] (puzzle: Sensor v3, turn-off variant 1) ?
442 nM

Any idea what its apparent KD of MS2 coat protein is? The sequence is AUAUUAAUAUAGGAUAUCGAAUUUAUAAAUUAUCGAGAAGGAUAAACAUGAGGAUCACCCAUGUGGUAUCAUGG [Mat - Exclusion 6 - JL Mod - D42] (puzzle: Exclusion 6)
239 nM

----------
Listed sequences paired with reported apparent KD of MS2 coat protein
- Test system: MS2 coat protein
- test_description: apparent KD of MS2 coat protein; designed switch direction (-1 OFF switch, 1 ON switch): -1; higher = weaker reporter binding
- experimental_conditions: input ligand: microRNA oligo, concentration not stated
// return numeric value only (unit: nM, not printed)

| sequence_string | unit | apparent KD of MS2 coat protein |
| --- | --- | --- |
| AUCAGCUCGUCAGGAUAUAUUAACAUGAGGAUCACCCAUGUAAGAUCAGGCUUCGGCCAAUGUUAAUAGAAGGGACGAGCUGAU [ENG2/12-B2] (Eterna round: R96, puzzle: Exclusion NG 2) | nM | 29 |

Need apparent KD of MS2 coat protein of ACAUGAGGAUCACCCAUGUUUGGCUGGUUUUCUCCGGCUGUCGAGGAUAUAGUACGGUAUCCGCGCUAGAAGGUGAGGGCCGGC [Aenatbe mod 1] (Eterna round: R96, puzzle: Exclusion NG 3) , thanks.
14.3

So what's the measured apparent KD of MS2 coat protein for this one? UUCGUGCUGCUUUGCUGUACGAGUACAUGAGGAUCACCCAUGUAGGAUAUGGACAUGAGGAUCACCCAGAAGGAUAUGUGUUGC [salish99_ExNG3_r04_508] (Eterna round: R96, puzzle: Exclusion NG 3)
87.5

Fill in the blank: the reported apparent KD of MS2 coat protein of AGGUCCUUCUGGAGACAUGAGGAUCACCCAUGUCGAGUCAGCGAGGAUAUCGGUAAGACAUGUGAUGAGAAGGCGCAGACCGAU [Ex NG3 #43] (Eterna round: R96, puzzle: Exclusion NG 3) is ____.
11.9

# get_value(readout='apparent KD of MS2 coat protein', item= AUCAGCUCGUCAGGAUAUAUAUACAUGAGGAUCACCCAUGUAAGAUCAGGCUUCGGCCAAUGUAUAUAGAAGGGACGAGCUGAU [ENG2/11-B3] (Eterna round: R96, puzzle: Exclusion NG 2) )
371

----------
- System: MS2 coat protein
- test_description: apparent KD of MS2 coat protein; designed switch direction (-1 OFF switch, 1 ON switch): -1; higher = weaker reporter binding
- experimental_conditions: Eterna round: R95; input ligand: microRNA oligo, concentration not stated
recorded_metric: apparent KD of MS2 coat protein (nM)
# number only, unit nM dropped from output

Examples from the recorded data:
| sequence_string | unit | endpoint_result |
| --- | --- | --- |
| GUGUAGUCAGGAUAUACAUAGGAAGAGAAUAUAAUAUAAGUACAUGAGGAUCACCCAUGUAGAAGGGACAGUGU [Excluse me!! 8 - Jieux - Exclusion 2] (puzzle: Exclusion 2) | nM | 29.4 |
| AAGUAUAGAGGAUAUAGUGAGUACUACAUGAGGAUCACCCAUGUUCUUCAUUACGUAUUUCUAGAAGGCUGAUAAA [EX-5 Malc#24] (puzzle: Exclusion 5) | nM | 261 |
| GCUUUUCUUUUCCUUUCUUACAUGAGGAUCACCCAUGUUUCUUGUCGUGCUCGCGUUGCUCGUCUGUCUGUCUGUUG [salish99_TOv1_r3_077(!)] (puzzle: Sensor v3, turn-off variant 1) | nM | 35.1 |
| UCAUAACAUGAGGAUCACCCAUGUGAGGAUAUGAUACUAUGUACUUCGGUACAUAGUAUCAGAAGGCGCAUACU [Brourd's Ex1-3: 11 (nt 68 G)] (puzzle: Exclusion 1) | nM | 55.2 |
| ACAAGCGAAAGGCUCGUCUUAUUUUUGUAGAGGUUCUAAACAUGAGGAUCACCCAUGUAGUGGCGAUGGUGGAGGUA [JR_SV3TOV2_Sub069] (puzzle: Sensor v3, turn-off variant 2) | nM | 44.2 |

Quick check: apparent KD of MS2 coat protein of CCGAGGUAGCGGUCCUAUGACAUGAGGAUCACCCAUGUACCUCGCUACGAGCUUUUUGCUCGUCUUAAAAUUCUCGG [Mat - Sensor v3 - turn-off var 1 - JL Mod - D29] (puzzle: Sensor v3, turn-off variant 1) ?
156

Consider the sequence shown here: UUUAAUUUUUUUUUUUUACAAGCUUUUUGCUCGUCUUAUACAUGAGGAUCACCCAUGUGAAUGGAGGGUAAAUUAUC [JMF 84] (puzzle: Sensor v3, turn-off variant 2) What is its recorded apparent KD of MS2 coat protein?
42.5

Using the record for GCCGAUUAAGUGAGGAUAUACCUAUGGAUACAUAGGUAGAAGGUACAUGAGGAUCACCCAUGUUCCUUAACGGC [Fiskers BMX 4 - 8] (puzzle: Brourd's mod of Exclusion 4) , report its apparent KD of MS2 coat protein.
10.4

For the sequence CGGAUGUGAGGAUAUACAUGAGGAUCACCCAUGUGAGCCAGCUAGCUGACUGGCUCAUGUAGAAGGCACGUCUG [JL-ex3-2.15 Brourd mod] (puzzle: Exclusion 3) , what apparent KD of MS2 coat protein is on record?
42.2

Which apparent KD of MS2 coat protein value belongs to AUAGUAGAAGUGAGGAUAUCGUAGAUUUUUUGAAACGAGAAGGCACAUGAGGAUCACCCAUGUAAGAUGGAGGU [JR_BMOE4_Sub052] (puzzle: Brourd's mod of Exclusion 4) ?
219
